# assayProcedure: acute toxicity (LD50)
# conditionSummary: mouse, in vivo, sc; s. c., mice
recordedMetric: LD50

**Query** Returns the measured LD50 for the input molecule. Input: COCCN1CC[C@]23c4c5ccc(O)c4O[C@H]2C(=O)CC[C@@]3(O)[C@H]1C5
**Result** 1350 mg/kg

Source listed as patent US4473573A.
